Target: catalytic domain of human Bub1 (amino acids 704-1085) (Homo sapiens, UniProt O43683)
Sequence (O43683 704-1085): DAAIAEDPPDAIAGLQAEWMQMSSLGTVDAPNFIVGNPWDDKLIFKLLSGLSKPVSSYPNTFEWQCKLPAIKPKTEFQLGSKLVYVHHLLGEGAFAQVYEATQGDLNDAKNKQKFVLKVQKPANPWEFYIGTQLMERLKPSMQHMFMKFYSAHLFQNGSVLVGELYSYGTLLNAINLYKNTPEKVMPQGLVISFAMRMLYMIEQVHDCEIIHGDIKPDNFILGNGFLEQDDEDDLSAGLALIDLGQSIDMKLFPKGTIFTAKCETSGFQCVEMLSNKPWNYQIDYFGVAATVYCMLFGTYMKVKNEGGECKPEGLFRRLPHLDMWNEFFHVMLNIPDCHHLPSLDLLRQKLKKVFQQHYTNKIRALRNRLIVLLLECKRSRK
Please assign f whenever IC50 is at or above 100 nM, and t whenever it is below.

Determine if CCOc1cc(F)c(Cn2nc(-c3ncc(OCCO)c(Nc4ccncc4)n3)c3c2CCC3)c(F)c1 shows IC50 strictly lower than 100 nM.
t

Also, N#Cc1cnccc1Nc1nc(-c2nn(Cc3ccccc3F)c3c2CCC3)ncc1OCCO please.
f

Also, COc1cnc(-c2nn(Cc3ccccc3F)c3c2CCC3)nc1Nc1ccncc1C(N)=O please.
t

Also, NC(=O)c1cnccc1Nc1nc(-c2nn(Cc3ccccc3F)c3c2CCC3)ncc1OCCO please.
t

Also, COCC(=O)N(c1ccncc1)c1nc(-c2nn(Cc3ccccc3F)c3c2CCC3)nc(N)c1OC please.
f

Also, NC(=O)c1cnccc1N(CCO)c1nc(-c2nn(Cc3ccccc3F)c3c2CCC3)ncc1OCCO please.
f

Also, COc1ccc(Cn2nc(-c3ncc(OC)c(Nc4ccncc4)n3)c3c2CCC3)cc1 please.
t

Also, NC(=O)c1cnccc1Nc1nc(-c2nn(Cc3ccccc3F)c3c2CCC3)ncc1O please.
f

Also, CCOC(=O)c1cnccc1Nc1nc(-c2nn(Cc3ccccc3F)c3c2CCC3)ncc1OCC1(CO)COC1 please.
t

Also, CCOc1cc(F)c(Cn2nc(-c3ncc(O)c(N(CCN(C)C)c4ccncc4)n3)c3c2CCC3)c(F)c1 please.
f

Also, CCOc1cc(F)c(Cn2nc(-c3ncc(OCCN(C)C)c(Nc4ccncc4)n3)c3c2CCC3)c(F)c1 please.
t

Also, CCOc1cc(F)c(Cn2nc(-c3ncc(OCCN4CCCC4)c(Nc4ccncc4)n3)c3c2CCC3)c(F)c1 please.
t

Also, CCOc1cc(F)c(Cn2nc(-c3ncc(OCC4(CO)COC4)c(Nc4ccncc4)n3)c3c2CCC3)c(F)c1 please.
t
